// reported PBM binding z-score per item
# Test system: LXRa:RXRa (NR concentration 270 nM, RXRa partner concentration 90 nM)
# Assay Name: PBM binding z-score (relative to random genomic background probes); higher = stronger binding; sequences stand for … in GC…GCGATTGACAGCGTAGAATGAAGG
# print the numeric value only

Which PBM binding z-score is reported for this sequence? ATCTCTAGGTAACAAGTTCAGTGAAAGAGAGGAC
1.09

One more sequence: CCTACGGGGCCATTCAGAGGTCATTGATCATATG
4.88

One more sequence: GGAACGAGGGCATTCGAGGTGATAGCATGGCGAT
3.38

---

// reported PBM binding z-score per item
# System: RXRa homodimer (NR concentration 180 nM)
# Assay Name: PBM binding z-score (relative to random genomic background probes); higher = stronger binding; sequences stand for … in GC…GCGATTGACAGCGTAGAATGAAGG
# print the numeric value only

Field: example entries. Status: answers known.
In [3]: df
Out[3]:
                       entry_sequence  reported
0  ACTATTAGTTGAGACGAGGGCAACCGGTAGGTTG     0.675
1  CCTACTGGGCCACGAAAGGTCTTTGATTCAGTGA     0.067
2  CCTAGTTGGTCAAGGTCACTCACGCTATAGGTAC      3.76
3  CAAACTAGGTCATGAGGTCAAAGTCCGCTTCCCG      7.98

Which PBM binding z-score is reported for this sequence? AATACAGGATCATCGTAGGCCAGAGTACGCACAG
0.54

One more sequence: CCTACTGGGCCACGAAATGTCATTGATTCAGTGA
-0.0138
